Below, each of the binders is paired with its reported Kd value.
tested_system: T1, huCD3e-mFc (human, UniProt P07766 23-126)
T1 construct: not shown: mFc, not described
T1 sequence (P07766 23-126): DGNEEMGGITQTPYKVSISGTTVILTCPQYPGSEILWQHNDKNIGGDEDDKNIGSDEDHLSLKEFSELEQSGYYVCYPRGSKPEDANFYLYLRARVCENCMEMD
method_notes: Pool 3 screen
State just the number; it will be interpreted in nM.

binder	reported_measurement
AC3802 (CD3.298) (scFv, V domains shown, Pool 3 format (remarks)) VH: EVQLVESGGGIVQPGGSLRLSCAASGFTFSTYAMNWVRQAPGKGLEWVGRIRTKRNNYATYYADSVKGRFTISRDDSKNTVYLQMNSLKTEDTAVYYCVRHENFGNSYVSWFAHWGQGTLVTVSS VL: ELVVTQEPSLTVSPGGTVTLTCRSSNGAVTSSNYANWVQQKPGQAPRGLIGGTNKRAPGTPARFSGSLDGGKAALTLSGVQPEDEAVYYCALWYPNLWVFGGGTKLTVL	4.07

Which Kd reading was recorded for the binder AC3844 (CD3.340) (scFv, V domains shown, Pool 3 format (remarks)) VH: EVQLVESGGGIVQPGGSLRLSCAASGFTFNTYAMNWVRQAPGKGLEWVGRIRTKTNDYATYYADSVKGRFTISRDDSKNTLYLQMNSLKTEDTAVYYCVRHENFGNSYVSWFAHWGQGTLVTVSS VL: ELVVTQEPSLTVSPGGTVTLTCRSSNGAVTSSNYANWVQQKPGQAPRGLIGGTNKRAPGTPARFSGSLNGGKAALTLSGVQPEDEAVYYCALWYPNLWVFGGGTKLTVL ?
10.6

Record request: Kd value, item AC3848 (CD3.344) (scFv, V domains shown, Pool 3 format (remarks)) VH: EVQLVESGGGIVQPGGSLRLSCAASGFTFNTYAMNWVRQAPGKGLEWVGRIRTKTNDYATYYADSVKGRFTISRDDSKNTLYLQMNSLKTEDTAVYYCVRHENFGNSYVSWFAHWGQGTLVTVSS VL: ELVVTQEPSLTVSPGGTVTLTCRSSNGAVTSSNYANWVQQKPGQAPRGLIGGTNKRAPGTPARFSGSLLGGKAGLTLSGVQPEDEAVYYCALWYPNLWVFGGGTKLTVL
14.2

All figures here come from patent US20260167728A1.
